- Tested Target: human MAO-B (Homo sapiens, UniProt P27338)
- Construct: purchased Sigma-Aldrich (Dorset, UK); host or cells: insect cells (membranes)
- Sequence (P27338 whole entry): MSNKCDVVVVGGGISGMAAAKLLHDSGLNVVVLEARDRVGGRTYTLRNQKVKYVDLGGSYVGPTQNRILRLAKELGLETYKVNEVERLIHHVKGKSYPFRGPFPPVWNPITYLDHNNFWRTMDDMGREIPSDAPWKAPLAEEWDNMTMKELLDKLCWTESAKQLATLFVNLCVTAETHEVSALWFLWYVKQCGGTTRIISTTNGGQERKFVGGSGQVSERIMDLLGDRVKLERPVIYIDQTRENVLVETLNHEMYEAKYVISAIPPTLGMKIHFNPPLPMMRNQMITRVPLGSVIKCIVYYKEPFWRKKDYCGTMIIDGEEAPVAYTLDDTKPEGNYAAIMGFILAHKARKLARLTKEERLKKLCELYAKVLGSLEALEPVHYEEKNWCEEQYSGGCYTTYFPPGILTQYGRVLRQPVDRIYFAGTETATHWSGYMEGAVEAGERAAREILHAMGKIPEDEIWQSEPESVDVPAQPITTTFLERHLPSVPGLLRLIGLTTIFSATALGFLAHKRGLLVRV
- Procedure Details: Time-dependent inactivation, Kitz-Wilson analysis
- Type: biochemical
- Stated Conditions: inactivation constant
Assay Metric: pKi
pKi is a log-scale quantity: -log10 of the concentration expressed in molar.

Requested field: pKi. Item: C#CCN(C)Cc1cc2cc(OCCCC3CCN(Cc4ccccc4)CC3)ccc2n1C 5.76

* * *

Listed here are compounds together with their documented rate of anaerobic reduction of FAD (absorbance decrease at 495 nm).
- Tested Target: purified human MAO-A (Homo sapiens)
- Construct: made in house; host or cells: Saccharomyces cerevisiae
- Sequence (P21397 1-527): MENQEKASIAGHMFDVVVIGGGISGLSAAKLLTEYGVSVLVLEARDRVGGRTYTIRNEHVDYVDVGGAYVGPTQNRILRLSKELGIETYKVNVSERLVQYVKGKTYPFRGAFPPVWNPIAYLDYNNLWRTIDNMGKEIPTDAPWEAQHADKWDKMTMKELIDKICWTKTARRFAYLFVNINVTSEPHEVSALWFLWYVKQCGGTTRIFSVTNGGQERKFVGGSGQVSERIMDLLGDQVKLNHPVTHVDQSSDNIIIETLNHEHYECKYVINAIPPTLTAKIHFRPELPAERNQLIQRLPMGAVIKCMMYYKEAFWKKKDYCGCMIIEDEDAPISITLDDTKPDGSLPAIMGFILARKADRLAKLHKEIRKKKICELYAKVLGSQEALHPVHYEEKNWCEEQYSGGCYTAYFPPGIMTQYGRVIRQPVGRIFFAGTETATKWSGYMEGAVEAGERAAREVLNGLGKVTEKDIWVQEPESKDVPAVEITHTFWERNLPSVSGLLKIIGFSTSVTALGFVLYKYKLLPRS
- Procedure Details: Anaerobic spectral kinetics of flavin reduction and adduct formation (stopped-flow / timed spectra)
- Format: biochemical
- Stated Conditions: anaerobic, purified MAO-A
Please reply with the bare figure in min⁻¹ and do not write the unit itself.

Recorded rate of anaerobic reduction of FAD (absorbance decrease at 495 nm), per entry:
{"columns": ["Smiles Record", "Unit", "Recorded Measurement"],
 "data": [
  ["C#CCN(C)Cc1ccco1", "min⁻¹", 0.0034],
  ["C#CCN(C)[C@H](C)Cc1ccccc1", "min⁻¹", 0.019],
  ["C#CCN(C)Cc1ccccc1", "min⁻¹", 0.28]
]}

Note: attention shifts to another entry.
Param item = C#CCN(C)Cc1cc2cc(OCCCC3CCN(Cc4ccccc4)CC3)ccc2n1C ; retrieve measured rate of anaerobic reduction of FAD (absorbance decrease at 495 nm). 3.36

* * *

- Tested Target: MAO-A (Homo sapiens)
- Sequence (P21397 1-527): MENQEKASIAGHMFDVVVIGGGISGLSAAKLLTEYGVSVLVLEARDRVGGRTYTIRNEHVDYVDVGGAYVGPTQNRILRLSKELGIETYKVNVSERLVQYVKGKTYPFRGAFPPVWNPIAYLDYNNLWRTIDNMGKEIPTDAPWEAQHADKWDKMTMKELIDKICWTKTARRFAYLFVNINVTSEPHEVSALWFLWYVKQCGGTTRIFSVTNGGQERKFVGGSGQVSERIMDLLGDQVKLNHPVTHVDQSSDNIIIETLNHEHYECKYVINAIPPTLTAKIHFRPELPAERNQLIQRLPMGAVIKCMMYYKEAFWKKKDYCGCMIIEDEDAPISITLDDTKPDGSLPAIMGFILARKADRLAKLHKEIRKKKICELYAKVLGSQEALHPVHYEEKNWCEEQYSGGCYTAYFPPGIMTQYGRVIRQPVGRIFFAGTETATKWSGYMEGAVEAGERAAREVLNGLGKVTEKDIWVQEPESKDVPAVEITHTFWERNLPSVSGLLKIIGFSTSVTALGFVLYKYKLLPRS
- Procedure Details: Time-dependent inactivation, Kitz-Wilson analysis
- Type: biochemical
- Design: purchased Sigma-Aldrich (Dorset, UK); host or cells: insect cells (membranes)
- Protocol: Rates (as relative fluorescence units per second, rfu/s) were analyzed as the log of the fractional activity remaining compared to control against time to obtain kobs.
Assay Metric: pKi
Field pKi (float): negative decimal logarithm of the concentration in molar.

Query: pKi; subject: C#CCN(C)Cc1cc2cc(OCCCC3CCN(Cc4ccccc4)CC3)ccc2n1C [ASS234] 7.35
